System: HOP-92 NSCLC
experiment.description: NCI tumour cell line growth inhibition, 48 h; in the data active = GI50 below about 0.43 µM; inactive = the rest
Hi! Could you answer with just one of these? active, inactive

// return assay outcome for CSc1ccc(-c2ccccc(=O)c2O)cc1
inactive

Now consider COc1ccc(C(=O)Nc2ncc(Cc3cccc(Cl)c3)s2)cc1OC and answer again.
inactive

And the next one, NC1=CC(=O)c2cccnc2C1=O ?
inactive

Please give the result for c1ccc([CH2][Sn]([CH2]c2ccccc2)([O]c2cccc3cccnc23)[O]c2cccc3cccnc23)cc1 too.
inactive

For CC(C)(C)N1CCC1CN (configuration not stated) then?
inactive

Now this one: COc1ccc(N=Cc2c(O)ccc3c2oc2cc(Cl)c(O)c(Cl)c23)cc1
inactive

What do you get for CCOC(=O)c1ccccc1OC(=O)NNc1ccccc1 ?
inactive

Do the same for C=C(C)[C@@H]1CC[C@]2(COCCC#N)CC[C@]3(C)[C@H](CC[C@@H]4[C@@](C)(CCCNCCC#N)[C@H](C(=C)C)CC[C@]43C)[C@@H]12 please
inactive

Proceed to CCOC(=O)c1ccc(Nc2sc(C(=O)c3ccc(Br)cc3)c(N)c2C#N)cc1
inactive

Continue with COc1cccc(CCC2CCCN(c3cc(C)nc(N)n3)C2)c1 (configuration not stated)
inactive

And what about the compound Cc1cccc(-c2[nH]ncc2-c2ccc3ncccc3n2)n1 ?
inactive

Follow-up entry: Cc1cc(Nc2ccc(OCc3ccccc3)cc2)nc2cc(O)ccc12
inactive

Would you mind doing CO/C=C/C(=O)c1cc2cnc3c(=N)cc(NC(=O)C(C)C)c([nH]1)c23 as well?
active

Lookup O=c1cc(-c2ccccc2)oc2ccc(OC/C(=N/O)c3ccccc3)cc12
inactive

Can you handle COc1cc2nccc(Oc3ccc(NC(=O)NC4CC4)c(Cl)c3)c2cc1C(N)=O next?
inactive

What about CCN(CC)CCNc1ccc(C)c2sc3cc(Cl)ccc3c(=O)c12 ?
inactive

Also need Cc1ccc(Cl)cc1Nc1nc(C(F)(F)F)ccc1C(=O)N/N=C/c1cccnc1 , thanks.
inactive

====

Please respond with reported GI50 for every item in the list.
Tested on: HCT-116 colon
experiment.description: NCI tumour cell line growth inhibition, 48 h

Which value of GI50 has been reported for CO/C=C/C(=O)c1cc2cnc3c(=N)cc(NC(=O)C(C)C)c([nH]1)c23 in the records?
58.5 nM

Subsequent entry: COc1cc([C@@H]2c3cc4c(c(O)c3C[C@H]3COC(=O)[C@@H]32)OCO4)cc(OC)c1OC
58.9 nM

Same question for C=C(C)C(=O)O[C@H]1CC2=C[C@@H](C[C@@]3(C)O[C@@H]3[C@H]3OC(=O)C(=C)[C@@H]31)OC2=O please.
1400 nM

One more compound: N#Cc1c(NC(=O)NCc2ccccc2)sc2c1CCCC2
533 nM

Same again, this time with CC1(C)N=C(N)N=C(N)N1c1ccc(CCCCc2ccccc2)c(Cl)c1
< 10 nM

====

Kindly state TGI for each of the entries shown.
Tested on: SF-268 CNS
experiment.description: NCI tumour cell line growth inhibition, 48 h
*1 amine or outer side, *2 acyl side, *3 side chain or, on linkers, in order; H or OH if unused. Where a SMILES comes first, the peptide text is derived from it. [ ]: non-standard residue; d: D form. The star is where a group is joined. ξ: configuration not given here. X27 = O=C([C@H]1CCC[C@H]1N[*:1])[*:2]; ξW = NC(Cc1c[nH]c2ccccc12)C(=O)O; ξF = NC(Cc1ccccc1)C(=O)O; Boc = CC(C)(C)OC(=O)*; ξK = NCCCCC(N)C(=O)O; ξT = CC(O)C(N)C(=O)O; tBu = CC(C)(C)*

Param item = COC(=O)c1c(C)cccc1C1CN=NC12Cc1ccccc1C2=O (stereo not drawn) ; retrieve measured TGI.
> 100 µM

Could you do the same for Cn1cc(C2=C(c3ccccc3[N+](=O)[O-])C(=O)NC2=O)c2ccccc21 , please?
18 µM

Again, but for CC(=O)OC1CC2CCN3C(=O)c4cc5c(cc4[C@H](C1OC(C)=O)C23)OCO5 (stereo partly drawn)
> 100 µM

Also check Cc1c(O)c2ccccc2oc1=O
> 100 µM

Also check CCCCCCCCOCC(O)COC(C)C (stereo not drawn)
> 100 µM

Now try c1ccc2c(CN3CCN(Cc4c[nH]c5ccccc45)CC3)c[nH]c2c1 .
36 µM

// next record CC(=O)OCC(C)C1=C(OC(C)=O)C(=O)C2(C)C/C=C(/C)CC/C=C(\C)CCC(OC(C)=O)C(C)CCC12 (stereo not drawn)
35 µM

Also, CC1(C)CC(O)C2=C(O1)C(=O)c1ncccc1C2=O (stereo not drawn) please.
4.85 µM

Let us now turn to Nc1c(-c2cn(Cc3ccccc3)c3ccccc23)[n+]([O-])c2ccccc2[n+]1[O-]
> 100 µM

Item: CCOC(=O)CCC(NC(=O)Cc1ccc(Nc2nc3ccccc3nc2-c2cccs2)cc1)C(=O)OCC (stereo not drawn)
> 100 µM

Item: CCOC(=O)C1SC(=Nc2cccc(Cl)c2C)N=C1C (stereo not drawn)
> 100 µM

// query: Oc1cc(O)c2ccc(-c3ccc(O)c(O)c3)[o+]c2c1
> 100 µM

Then NCCCNc1nc2ccccc2c2c(=O)c3cc(F)cc(F)c3sc12 ?
3.32 µM

Repeat for the following compound: C=CCC(N[C@@H](CO)c1ccccc1)c1cn(Cc2ccccc2Cl)c(=O)n(Cc2ccccc2Cl)c1=O (stereo partly drawn)
> 100 µM

Do the same for CC(=O)OCC(OC(C)=O)C(OC(C)=O)C(/C=N\Nc1nc2ccccc2c(=O)[nH]1)=N\Nc1nc2ccccc2c(=O)[nH]1 (stereo not drawn) please
> 100 µM

One more compound: CN(C)c1ccc(/C=C/c2ccnc3c(O)cccc23)cc1
> 100 µM

Check Cc1c(C)c(C)c(CC2(C)CSC2)c(CC2(C)CSC2)c1C too.
> 100 µM

Lookup O=C1NC(=S)N/C1=C\c1cc2c(=O)c3ccccc3sc2s1
> 100 µM

Thanks! And COc1ccc(CC2C3=C(CCN2C(=O)C2CCC2)CC2(CC3)OCCO2)cc1O (stereo not drawn) ?
> 100 µM

Lookup NC1=NC2=c3ccccc3=C(c3cnccn3)C2(c2cnccn2)c2ccccc21 (stereo not drawn)
> 100 µM

Now try COc1cc(/C=C2\C[C@H]3[C@@H]4CC=C5C[C@@H](O)CC[C@]5(C)[C@H]4CC[C@]3(C)[C@H]2O)ccc1OCCN1CCCC1 .
22.8 µM

Then CCOP(=O)(OCC)C(C)(C)N(C)/C(F)=N/C(F)(F)F ?
> 100 µM

Request: O=C(Cn1cc(-c2ccccc2)nn1)NC1CCCCC1
> 100 µM

Next record, please: CN(C)c1ccc(/C=C/C(=O)[O-])cc1.CN(C)c1ccc(/C=C/C(=O)[O-])cc1.[Cu+2]
> 100 µM

Would you kindly repeat that for CC(OC(C)(C)C)C1NC(=O)C(CCCCNC(=O)OC(C)(C)C)NC(=O)C(Cc2c[nH]c3ccccc23)NC(=O)C(Cc2ccccc2)NC(=O)[C@H]2CCC[C@H]2NC(=O)C(Cc2ccccc2)NC1=O (stereo partly drawn) (cyclo([X27][ξF][ξW][ξK](Boc)[ξT](tBu)[ξF])) ?
> 100 µM

Now try COc1ccc(/C=C(/C(=O)N2CCN(c3ccccc3)CC2)c2cc(OC)c(OC)c(OC)c2)cc1N .
> 100 µM

Queued: O=C(/C=C/c1ccco1)c1cc(F)c(Cl)cc1Cl
45.5 µM

Query CCCCCCCC/C=C/CCCCCCCC1=NC(C)(C)CN1CC(C)O (stereo not drawn) next
3.16 µM

Follow-up item: COC(=O)CCC(C)[C@H]1CCC2C3C(C[C@H](OC(C)=O)[C@@]21C)[C@@]1(C)CCC2(C[C@H]1C[C@H]3OC(C)=O)OOC1(CCCC1)OO2 (stereo partly drawn)
> 100 µM

Now the same for COc1cc(/C=C2/SC(c3ccccc3)N(Cc3ccccc3)C2=O)cc(OC)c1OC (stereo not drawn)
> 100 µM

Param item: CC[C@H](NC(=O)[C@H]1CCCCN1C)C(=O)N(C)[C@H](C[C@@H](OC(C)=O)c1nc(C(=O)N[C@@H](Cc2ccccc2)C[C@H](C)C(=O)O)cs1)C(C)C
> 14.3 µM

Field entry: CCCC(=O)Nc1cc(/C=C/C(=O)N2CC(CCl)c3c2cc(OCc2ccccc2)c2[nH]cc(C)c32)n(C)c1 (stereo not drawn)
0.907 µM

Follow-up item: Cc1ccc2c(=O)cc(Cc3cccs3)[nH]c2n1
> 100 µM

Same read-out for CCOP(=O)(C=C=C1CCC2[C@@H]3CCc4cc(OC)ccc4C3CC[C@]12C)OCC (stereo partly drawn) ?
28 µM

Next compound: CC(C)C1OC(N)=C(C#N)C1(C#N)C#N (stereo not drawn)
> 100 µM

Proceed to CN(C)CCNc1nc2ccccc2c2c1CCCC2
> 100 µM

Now try COC(=O)/C(=N\NC(N)=O)C(C(=O)C(=O)Nc1ccccc1OC)c1nc2ccc([N+](=O)[O-])cc2[nH]c1=O (stereo not drawn) .
> 100 µM

Follow-up entry: Cc1ccc(/C=N/n2c(Cc3ccccc3)n[nH]c2=O)cc1
> 100 µM
